B1: RBBP5 (parent)
chain: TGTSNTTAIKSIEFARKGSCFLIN

# Variants of: B1
# protocol-description: protein stability index of a GFP-peptide fusion (GPS, HEK-293T) (PSI 1-6); higher = more stable;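 also: lentivirally expressed fusions sorted by FACS into six bins by GFP to DsRed ratio, PSI derived from sequencing read proportions per bin multiplied by bin number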
# applied-conditions: c terminus: a fixed tail appended
Item-by-item account of protein stability index

Field: example entries. Status: answers known.
1) E13H | 2.4
2) G2Y | 3.22
3) C20N | 3.03
4) R16P | 2.34
5) S11C | 1.74
6) I12G | 2.4
7) T6H | 2.67
8) A8E | 2.71
9) F21K | 3.48
10) I23C | 2.36

According to the records, this variant T7N displays protein stability index of 2.14

Data point: S19M ; protein stability index = 1.59

Kindly note the recorded protein stability index for A8N , which is 2.56

The variant A15M showed protein stability index equal to 1.94

# credit: the supplement of paper PMC10567573
